Target: Ich-2 (Caspase-4) (Homo sapiens, UniProt P49662)
Sequence (P49662 81-270 limits assumed): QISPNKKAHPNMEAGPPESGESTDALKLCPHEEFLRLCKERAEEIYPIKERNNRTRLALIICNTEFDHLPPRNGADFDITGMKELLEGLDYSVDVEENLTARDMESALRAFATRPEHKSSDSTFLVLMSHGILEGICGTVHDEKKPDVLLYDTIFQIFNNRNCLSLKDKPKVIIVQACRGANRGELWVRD
Sequence (P49662 290-377 limits assumed): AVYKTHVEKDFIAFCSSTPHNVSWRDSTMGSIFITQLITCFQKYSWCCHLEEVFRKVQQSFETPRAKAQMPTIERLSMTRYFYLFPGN
pIC50: −log10 of the molar value.

{"columns": ["compound", "pIC50"],
 "data": [
  ["O=C(O)C[C@H](NC(=O)CN1CCc2ccccc2C1=O)C(=O)CNS(=O)(=O)CC12CCC(CC1)C2 [Example 5b]", 3.60],
  ["CC1(C)C2CC[C@]1(CS(=O)(=O)NCC(=O)C(CC(=O)O)NC(=O)OCc1ccccc1)C(=O)C2 (stereo partly drawn) [Example 2i]", 4.23],
  ["CC(NC(=O)C(NC(=O)OCc1ccccc1)C(C)C)C(=O)NC(CC(=O)O)C(=O)CNS(=O)(=O)CC12CCC(CC1=O)C2(C)C (stereo not drawn) [Example 4c]", 5.07],
  ["CC(C)C(NC(=O)C(CCC(=O)O)NC(=O)CCc1ccccc1)C(=O)NC(CC(=O)O)C(=O)CNS(=O)(=O)CC12CCC(CC1=O)C2(C)C (stereo not drawn) [Example 4d]", 5.80],
  ["CC1(C)C2CCC1(CS(=O)(=O)NCC(=O)C(CC(=O)O)NC(=O)OCc1ccccc1)C(=O)C2 (stereo not drawn) [Example 2l]", 3.03],
  ["O=C(O)CC(NC(=O)OCc1ccccc1)C(=O)CNS(=O)(=O)CCCc1ccccc1 (stereo not drawn) [Example 2b]", 2.07],
  ["O=C(O)CC(NC(=O)OCc1ccccc1)C(=O)CNS(=O)(=O)CCc1cccc2ccccc12 (stereo not drawn) [Example 2h]", 3.70],
  ["O=C(O)CC(NC(=O)OCc1ccccc1)C(=O)CNS(=O)(=O)CC1CCc2ccccc21 (stereo not drawn) [Example 2j]", 3.80],
  ["CC(C)C(NC(=O)C(CCC(=O)O)NC(=O)CCc1ccccc1)C(=O)NC(CC(=O)O)C(=O)CNS(=O)(=O)CCc1ccccc1 (stereo not drawn) [Example 3c]", 5.47]
]}
